Taken from the supplement of paper PMC7877785.

# EXPERIMENT: self-splicing fitness, log relative to wild type (ln ratio); higher = more splicing; Tetrahymena group I intron in knt gene, E. coli kanamycin selection, DiMSum; sequences stand for … in CUCUCU…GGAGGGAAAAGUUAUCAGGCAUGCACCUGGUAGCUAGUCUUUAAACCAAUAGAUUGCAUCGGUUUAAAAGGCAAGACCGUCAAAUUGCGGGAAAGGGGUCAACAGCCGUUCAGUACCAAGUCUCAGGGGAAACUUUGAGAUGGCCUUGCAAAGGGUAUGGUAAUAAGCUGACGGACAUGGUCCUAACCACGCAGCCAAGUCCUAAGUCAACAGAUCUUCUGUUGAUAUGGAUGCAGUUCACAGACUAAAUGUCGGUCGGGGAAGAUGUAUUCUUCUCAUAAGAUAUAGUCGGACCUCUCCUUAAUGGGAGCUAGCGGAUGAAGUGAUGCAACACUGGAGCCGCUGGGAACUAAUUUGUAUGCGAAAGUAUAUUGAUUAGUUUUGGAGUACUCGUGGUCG;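 note: selection with 25 µg/mL kanamycin versus none on LB agar overnight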
# TEST_CONTEXT: 37 °C
MEASUREMENT_KIND: self-splicing fitness (ln)
Could you keep your reply to the number by itself?

What measured self-splicing fitness (ln) goes with CGCCAGCAAUAUUACGUGAG ?
-1.25

Next sequence up: UGCUAGCAAUAUUACGACCU
-0.345

Field entry: CAAUAGCAAUAUUACGUGUU
-2.95

Follow-up item: GAUCAGCAAUAUUACGAACU
0.06

Input UCCGAGCAAUAUUACGGUUA
-0.174
